Molecular target: human CD33 V294A (human, UniProt P20138 18-364)
Sequence (P20138 18-364 V294A limits assumed): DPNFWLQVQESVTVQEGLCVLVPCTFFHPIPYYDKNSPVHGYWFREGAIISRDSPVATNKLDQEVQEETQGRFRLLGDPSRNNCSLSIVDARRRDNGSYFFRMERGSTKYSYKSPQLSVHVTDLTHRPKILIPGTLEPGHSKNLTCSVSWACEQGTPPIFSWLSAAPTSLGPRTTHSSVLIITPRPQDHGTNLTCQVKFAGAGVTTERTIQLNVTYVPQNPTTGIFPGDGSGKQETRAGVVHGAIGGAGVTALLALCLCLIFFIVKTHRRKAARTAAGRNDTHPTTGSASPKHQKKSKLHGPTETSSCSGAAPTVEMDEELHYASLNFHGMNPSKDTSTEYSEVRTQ
Assay: alanine scan, flow cytometry, HEK293-T;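 further: antibody binding to each alanine-substituted CD33 mutant expressed transiently in HEK293-T, read as fluorescence minus background, mean of duplicates, relative to wild-type CD33 set as 100%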
observable: Mean % WT Binding (% WT binding)
Give bare numbers, in % WT binding.

Exam item: Determine from records and report Mean % WT Binding for Refmab #1 (antibody, V domains shown, The alanine scan used IgG or Fab; also called hP67.6) VH: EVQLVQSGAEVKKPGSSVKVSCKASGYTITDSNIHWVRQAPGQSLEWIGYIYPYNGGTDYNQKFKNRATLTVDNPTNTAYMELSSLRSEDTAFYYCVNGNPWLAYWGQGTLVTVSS VL: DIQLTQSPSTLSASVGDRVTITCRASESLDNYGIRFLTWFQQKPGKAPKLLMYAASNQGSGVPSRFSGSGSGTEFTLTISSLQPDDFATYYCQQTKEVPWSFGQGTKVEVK
Marked response: 91.7
